- Subject Of Test: LINGO-1 (human) (UniProt Q96FE5)
- Measurement Protocol: affinity vs parent Li62 Fab; method not stated
Experimental Endpoint: Fold-Improvement (fold)
Only the number, expressed in fold, is required.

Li62 variant C10 Fab (VH CDR3 SEQ ID NO:29) (Fab, V domains shown) VH: EVQLLESGGGLVQPGGSLRLSCAASGFTFSIYPMFWVRQAPGKGLEWVSWIGPSGGITKYADSVKGRFTISRDNSKNTLYLQMNSLRAEDTATYYCAREGYYDWYFDLWGRGTLVTVSS VL: DIQMTQSPSFLSASVGDSVAITCRASQDISRYLAWYQQRPGKAPKLLIYDASNLQTGVPSRFSGSGSGTDFTFTITSLQPEDFGTYYCQQYDTLHPSFGPGTTVDIK    11
Li62 variant B06 Fab (VH CDR3 SEQ ID NO:17) (Fab, V domains shown) VH: EVQLLESGGGLVQPGGSLRLSCAASGFTFSIYPMFWVRQAPGKGLEWVSWIGPSGGITKYADSVKGRFTISRDNSKNTLYLQMNSLRAEDTATYYCAREGYYDWYFDQWGRGTLVTVSS VL: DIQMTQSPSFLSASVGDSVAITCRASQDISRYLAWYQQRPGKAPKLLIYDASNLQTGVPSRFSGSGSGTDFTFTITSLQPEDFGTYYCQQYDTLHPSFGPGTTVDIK    8
Li62 variant F02 Fab (VH CDR3 SEQ ID NO:24) (Fab, V domains shown) VH: EVQLLESGGGLVQPGGSLRLSCAASGFTFSIYPMFWVRQAPGKGLEWVSWIGPSGGITKYADSVKGRFTISRDNSKNTLYLQMNSLRAEDTATYYCAREGDYDWYFGLWGRGTLVTVSS VL: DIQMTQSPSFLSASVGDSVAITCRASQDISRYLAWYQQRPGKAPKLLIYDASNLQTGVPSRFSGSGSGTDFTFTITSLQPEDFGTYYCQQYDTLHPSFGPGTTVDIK    8
Li62 variant F06 Fab (VH CDR3 SEQ ID NO:25) (Fab, V domains shown) VH: EVQLLESGGGLVQPGGSLRLSCAASGFTFSIYPMFWVRQAPGKGLEWVSWIGPSGGITKYADSVKGRFTISRDNSKNTLYLQMNSLRAEDTATYYCAREGRYDWYFDLWGRGTLVTVSS VL: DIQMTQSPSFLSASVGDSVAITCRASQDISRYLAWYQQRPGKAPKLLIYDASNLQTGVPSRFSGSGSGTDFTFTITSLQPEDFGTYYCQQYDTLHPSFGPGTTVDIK    8

[ask] Given Li62 variant C10 Fab (VH CDR3 SEQ ID NO:33) (Fab, V domains shown) VH: EVQLLESGGGLVQPGGSLRLSCAASGFTFSIYPMFWVRQAPGKGLEWVSWIGPSGGITKYADSVKGRFTISRDNSKNTLYLQMNSLRAEDTATYYCAREGQFDWYFDLWGRGTLVTVSS VL: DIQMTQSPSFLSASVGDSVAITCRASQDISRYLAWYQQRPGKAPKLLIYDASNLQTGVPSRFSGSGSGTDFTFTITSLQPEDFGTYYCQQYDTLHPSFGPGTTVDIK , respond with its Fold-Improvement.
[reply] 9
